Where do the numbers come from? From ChEMBL document CHEMBL6114970.

Experiment Summary: Inhibition of TCEP-treated human SOD1 G93A mutant aggregation measured after 24 hrs by thioflavin-T fluorescence assay
Value Kind: IC50 (µM)

CCn1c2ccccc2c2cc(NC(=O)NNC(=S)Nc3ccccc3)ccc21: 26
COc1cc(/C=C/C(=O)CC(=O)/C=C/c2ccc(O)c(OC)c2)ccc1O: 32.3
CCn1c2ccccc2c2cc(NC(=O)NNC(=S)Nc3ccc(F)cc3)ccc21: 29.1

====

Organism: Homo sapiens
Experiment Summary: Inhibition of TCEP-treated human SOD1 A4V mutant aggregation at 50 uM measured after 24 hrs by thioflavin-T fluorescence assay relative to control
Value Kind: inhibition (%)

CCn1c2ccccc2c2cc(NC(=O)NNC(=O)Nc3ccc(F)cc3)ccc21: 46.1
CCn1c2ccccc2c2cc(NC(=O)NNC(=S)Nc3ccc(OC)cc3)ccc21: 58.8
CCn1c2ccccc2c2cc(NC(=O)NNC(=S)Nc3ccc(OC(F)(F)F)cc3)ccc21: 69.7
CCn1c2ccccc2c2cc(NC(=O)NNC(=S)NCc3ccccc3)ccc21: 54.2
CCn1c2ccccc2c2cc(NC(=O)NNC(=S)Nc3ccc([N+](=O)[O-])cc3)ccc21: 60

I: CCn1c2ccccc2c2cc(NC(=O)NNC(=O)Nc3ccc(OC(F)(F)F)cc3)ccc21
II: CCn1c2ccccc2c2cc(NC(=O)NNC(=S)Nc3ccc(F)cc3)ccc21
III: Nc1nc2ccc(OC(F)(F)F)cc2s1
Output the entries ranked by inhibition from maximum down to minimum. When ranking, write the labels in the order the request describes.
II, I, III
(II: 76.2%, I: 47.1%, III: 9.88%)

====

Species on record: Homo sapiens
Experiment Summary: Inhibition of TCEP-treated human SOD1 G93A mutant aggregation at 50 uM measured after 24 hrs by thioflavin-T fluorescence assay relative to control
inhibition listing for selected compounds.

CCn1c2ccccc2c2cc(NC(=O)NNC(=S)NCc3ccccc3)ccc21: 69.8%
CCn1c2ccccc2c2cc(NC(=O)NNC(=O)Nc3ccc([N+](=O)[O-])cc3)ccc21: 48.2%
CCn1c2ccccc2c2cc(NC(=O)NNC(=S)Nc3ccc(Cl)cc3)ccc21: 76.4%

Now turn to the next compound.
Which inhibition is reported for this compound? CCn1c2ccccc2c2cc(NC(=O)NNC(=S)Nc3ccc(OC)cc3)ccc21
72.5%
